# MEASUREMENT_TARGET: Sialic acid-binding Ig-like lectin 9 (Homo sapiens) (UniProt Q9Y336)
# Sequence (Q9Y336 whole entry): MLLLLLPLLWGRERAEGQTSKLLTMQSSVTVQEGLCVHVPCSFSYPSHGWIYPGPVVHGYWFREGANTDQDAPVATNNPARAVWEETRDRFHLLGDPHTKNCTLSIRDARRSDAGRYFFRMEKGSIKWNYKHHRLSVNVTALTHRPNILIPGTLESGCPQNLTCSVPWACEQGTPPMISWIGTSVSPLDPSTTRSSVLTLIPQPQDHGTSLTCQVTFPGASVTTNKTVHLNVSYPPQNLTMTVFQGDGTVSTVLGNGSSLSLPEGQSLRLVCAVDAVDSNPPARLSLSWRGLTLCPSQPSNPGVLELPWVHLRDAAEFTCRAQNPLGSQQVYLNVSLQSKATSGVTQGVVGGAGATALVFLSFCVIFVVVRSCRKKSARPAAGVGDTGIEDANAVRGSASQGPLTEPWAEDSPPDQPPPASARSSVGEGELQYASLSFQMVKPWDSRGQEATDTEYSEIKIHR
# EXPERIMENT_SUMMARY: Hs-Siglec9 ALPHAscreen SOP 20170721
# Parameters: scale not given: direction of the effect not stated beside the values
# CONDITION_INFO: 10 µM
VALUE_TYPE: Percent Effect (%)
Write the answer as a number in %, unit excluded.

# example entries with known answers
CN1[C@H](CN2CCCC2)C[C@@H]2CN(C(=O)c3cccn3C)CC[C@@H]21 : 1.42
Cc1occc1C(=O)N1CCC2(CCC2NC(=O)c2ccn(C)c2)CC1 (stereo unspecified) : -1.3
CCc1nc(CC(=O)N2CCN(c3cnccn3)CC2)cs1 : 5.88
CCn1cc(CNC2CC(=O)N(CCc3cccc(Cl)c3)C2)cn1 (stereo unspecified) : 35.6
Cc1cc(C(=O)NCCN2CCCC(C)C2)nn1C (stereo unspecified) : -8.23

Now look at this entry.
Quick check: Percent Effect of CC(Nc1cccc(CN2CCOC2=O)c1)C(=O)Nc1ccccc1F (stereo unspecified) ?
0.909
